- experimental target: GAL4 DBD (1-147)-CfEcR(DEF)/VP16AD-βRXREF-LmUSPEF (Choristoneura fumiferana, UniProt O77240)
- assay protocol: cell-based
- condition description: read-out: 27-63 assay EC50; CHO 27-63 stable cell line, luciferase reporter; average of two wells
pEC50: −log10 of the molar value.

compound	pEC50
COc1ccccc1C(=O)N(NC(=O)c1ccc2c(c1C)CCCO2)C(C)(C)C	6.31
Cc1c(C(=O)NN(C(=O)c2cc(F)c(F)cc2F)C(C)(C)C)ccc2c1CCCO2	5.94
CCc1c(OC)cccc1C(=O)NN(C(=O)c1c(F)cccc1F)C(C)(C)C	4.74
COc1cc(C(=O)NN(C(=O)c2cc(C)cc(C)c2)C(C)(C)C)ccc1C	5.30
Cc1ccc(F)c(C(=O)N(NC(=O)c2ccc3c(c2C)CCCO3)C(C)(C)C)c1	6.47
CCc1c(C(=O)NN(C(=O)c2ccccc2OC)C(C)(C)C)ccc2c1OCCO2 [RG-100690]	6.70
COc1cccc(C(=O)NN(C(=O)c2cccc(C)c2)C(C)(C)C)c1C	6.40
CCc1c(OC)cccc1C(=O)NN(C(=O)c1cc(C)cc(COC(C)=O)c1)C(C)(C)C	5.33

====

Quick list: Papp B-A / Papp A-B Ratio per entry.
- Tested on: Caco-2 monolayers
- assay protocol: Bi-directional permeability, CACO-2
- Format: in vitro ADME
- condition description: Caco-2 efflux ratio
recorded endpoint: Papp B-A / Papp A-B Ratio

molecule	experimental target	meas value
CCc1c(OC)cccc1C(=O)NN(C(=O)c1ccccc1S(=O)(=O)O)C(C)(C)C	Caco-2 monolayers	8.9
CCc1c(OC)cccc1C(=O)NN(C(=O)c1ccccc1[S+](C)[O-])C(C)(C)C (centres unmarked)	Caco-2 monolayers	1.0
CCCC(N(NC(=O)c1cccc(OC)c1C)C(=O)c1cc(C)cc(C)c1)C(C)(C)C (centres unmarked)	Caco-2 monolayers	1.0
CCc1c(C(=O)NN(C(=O)c2ccc(F)c(C(F)(F)F)c2)C(C)(C)C)ccc2c1OCCO2	Caco-2 monolayers	1.2
COc1cnccc1C(=O)N(NC(=O)c1cccc(O)c1C)C(C)(C)C	Caco-2 monolayers	1.6

====

- assay protocol: Partition coefficient Log (D), 1-octanol / pH 7.4 buffer
- Type: physicochemical
- condition description: water-saturated 1-octanol / pH 7.4 buffer, room temperature
compounds and their reported Log(D) Octanol/pH 7.4

smi	Log(D) Octanol/pH 7.4
Cc1cc(C)cc(C(=O)N(NC(=O)c2ccc3c(c2C)OCCO3)C(C)(C)C)c1	3.6
CCc1c(OC)cccc1C(=O)NN(C(=O)c1ccccc1S(=O)(=O)O)C(C)(C)C	0.0
COc1ccc(C(=O)N(NC(=O)c2ccc3c(c2C)OCCO3)C(C)(C)C)c(OC)n1	2.9
COc1cccc(C(=O)NN(C(=O)c2cc(C)cc(C)c2)C(C)(C)C)c1C	3.5

====

- experimental target: GAL4 DBD-CfEcR(DEF)/VP16AD-MmRXRE (Choristoneura fumiferana, UniProt O77240)
- assay protocol: 13B3 Assay (CHO stable cell line, luciferase reporter)
- condition description: 33 uM ligand; RLU ligand treated / RLU DMSO treated cells; average of two wells
Heads up, the class ranges for Fold Induction, 13B3 Assay, 33 uM are low (below 700), medium (700 to below 2000), high (2000 or more)

compound	category label
Cc1c(C(=O)NN(C(=O)c2cc(F)cc(F)c2)C(C)(C)C)ccc2c1CCCO2	high
CCC(N(NC(=O)c1cccc(C)c1C)C(=O)c1cccc(C)c1)C(C)(C)C (centres unmarked)	high
CCc1c(C(=O)NN(C(=O)c2cc(F)c(Cl)cc2Cl)C(C)(C)C)ccc2c1OCCO2	low
CCc1c(OC)cccc1C(=O)NN(C(=O)c1cc(Cl)ccc1OC)C(C)(C)C	low
Cc1cc(C)cc(C(=O)N(NC(=O)c2cc3c(cc2C)OCO3)C(C)(C)C)c1	medium
COc1ccc(OC)c(C(=O)N(NC(=O)c2cccc(C)c2C)C(C)(C)C)c1	high
CCc1c(OC)cccc1C(=O)NN(C(=O)c1cc(C)cc(C)c1)C(C)(C)COC(C)=O	high
Cc1cc(C)cc(C(=O)N(NC(=O)c2cccc(OC(C)C)c2C)C(C)(C)C)c1	medium
CCc1c(C(=O)NN(C(=O)c2cccc(OC)c2)C(C)(C)C)ccc2c1OCCO2	low
COc1cc(C(=O)N(NC(=O)c2ccc3c(c2C)CCCO3)C(C)(C)C)cc(OC)c1C	medium
CCc1c(C(=O)NN(C(=O)c2ccccc2OC)C(C)(C)C)ccc2c1OCCO2 [RG-100690]	low
CCc1c(OC)cccc1C(=O)NN(C(=O)c1cc(C)ccc1[N+](=O)[O-])C(C)(C)C	low
CCc1c(OC)cccc1C(=O)NN(C(=O)c1cccc(C#N)c1)C(C)(C)C	high
